Test system: IGROV-1
Test: NCI tumour cell line growth inhibition, 48 h
The source made the active and inactive calls. No stated cut-off is given here; in the data, active = GI50 up to about 1.1 µM and inactive = higher.
endpoint-name: GI50

// N=C(N)/N=C(\N)Nc1cnccn1 : GI50 value = > 100 µM (inactive)

// Nc1ccn(CCOC(=O)c2ccccc2)c(=O)n1 : GI50 value = > 100 µM (inactive)

// CCN1C(=O)CS/C1=N/NC(=O)C(O)(c1ccccc1)C1C=CC=CC1 (stereo unspecified) : GI50 value = > 10 µM (inactive)

// CC(=O)c1sc2[n+](c1C)C(=O)/C(=C\c1ccccc1Cl)S2 : GI50 value = 18.3 µM (inactive)

// N#Cc1c(Nc2ccccc2)[n+]([O-])c2ccc(Cl)cc2[n+]1[O-] : GI50 value = 1.78 µM (inactive)

// O=C1CSC(c2ccc(Cl)cc2)N1c1ccc(Oc2ccc(Cl)cc2)c(Cl)c1 (stereo unspecified) : GI50 value = 14.8 µM (inactive)
